Data origin, for the record: patent US10246429B2

measurement-target: Cathepsin D (CatD) (Homo sapiens (Human), UniProt P07339)
Sequence (P07339 65-412, species assumed): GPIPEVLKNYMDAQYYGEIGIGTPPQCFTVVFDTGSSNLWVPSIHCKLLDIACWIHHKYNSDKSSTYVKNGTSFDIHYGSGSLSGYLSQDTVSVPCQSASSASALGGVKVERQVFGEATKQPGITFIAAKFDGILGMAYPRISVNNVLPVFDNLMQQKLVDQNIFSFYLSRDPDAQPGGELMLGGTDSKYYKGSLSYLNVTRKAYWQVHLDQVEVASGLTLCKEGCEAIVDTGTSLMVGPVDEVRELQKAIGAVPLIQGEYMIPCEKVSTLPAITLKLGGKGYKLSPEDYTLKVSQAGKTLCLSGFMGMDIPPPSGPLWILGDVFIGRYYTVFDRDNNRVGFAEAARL
protocol-description: CatD assay
Type: biochemical
settings: read-out: IC50 IP (μM) CatD
Please respond with reported IC50 for every item in the list.
State the answer as a number, implicitly in µM.

The reported IC50 of the compound C[C@H]1CN(C(=O)[C@]23C[C@H]2[C@@](C)(c2cc(/C=C(\F)c4ccc(C#N)cn4)ccc2F)N=C(N)S3)CCO1 [Example 321] was 578

The reported IC50 of the compound CN(C)C(=O)[C@]12C[C@H]1[C@@](C)(c1cc(/C=C(\F)I)ccc1F)N=C(N)S2 [Example 206] was 12.2

The reported IC50 of the compound CNC(=O)[C@]12C[C@H]1[C@@](C)(c1cc(/C=C(\F)c3cnc(C#N)cn3)ccc1F)N=C(N)S2 [Example 223] was 234

The reported IC50 of the compound C[C@]1(c2cc(/C=C(\F)c3ccc(Cl)cn3)ccc2F)N=C(N)S[C@]2(CO)[C@H]1C2(F)F [Example 255] was 235
